Attribution: the supplement of paper PMC5998384

System: HeLa Kyoto
Assay: solubility change mitosis vs G1/S (difference of NP-40 vs SDS log2 ratios) (log2 ratio difference); higher = more soluble in mitosis
Recorded solubility change mitosis (log2) for the following substances
measuredParameter: solubility change mitosis (log2)

{"substance": "MAAAPQAPGRGSLRKTRPLVVKTSLNNPYIIRWSALESEDMHFILQTLEDRLKAIGLQKIEDKKKKNKTPFLKKESREKCSIAVDISENLKEKKTDAKQQVSGWTPAHVRKQLAIGVNEVTRALERRELLLVLVCKSVKPAMITSHLIQLSLSRSVPACQVPRLSERIAPVIGLKCVLALAFKKNTTDFVDEVRAIIPRVPSLSVPWLQDRIEDSGENLETEPLESQDRELLDTSFEDLSKPKRKLADGRQASVTLQPLKIKKLIPNPNKIRKPPKSKKATPK [RPP38]", "assayTarget": "HeLa Kyoto", "measuredParameter": "solubility change mitosis (log2)", "readoutNumber": -0.0549}
{"substance": "HNRNPK", "assayTarget": "HeLa Kyoto", "measuredParameter": "solubility change mitosis (log2)", "readoutNumber": 0.0123}
{"substance": "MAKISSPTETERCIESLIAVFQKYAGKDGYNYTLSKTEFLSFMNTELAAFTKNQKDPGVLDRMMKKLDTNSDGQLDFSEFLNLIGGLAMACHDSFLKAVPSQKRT [S100A11]", "assayTarget": "HeLa Kyoto", "measuredParameter": "solubility change mitosis (log2)", "readoutNumber": 0.343}
{"substance": "MLEEDMEVAIKMVVVGNGAVGKSSMIQRYCKGIFTKDYKKTIGVDFLERQIQVNDEDVRLMLWDTAGQEEFDAITKAYYRGAQACVLVFSTTDRESFEAVSSWREKVVAEVGDIPTVLVQNKIDLLDDSCIKNEEAEALAKRLKLRFYRTSVKEDLNVNEVFKYLAEKYLQKLKQQIAEDPELTHSSSNKIGVFNTSGGSHSGQNSGTLNGGDVINLRPNKQRTKKNRNPFSSCSIP [RAB23]", "assayTarget": "HeLa Kyoto", "measuredParameter": "solubility change mitosis (log2)", "readoutNumber": -0.139}

====

Recorded thermal stability score for the following sequences
Tested on: HeLa Kyoto
Experiment: thermal stability score vs G1/S (z-score of summed log2 fold changes over temperatures); higher = more thermally stable than in G1/S
Conditions: cell cycle stage: mitosis
measuredParameter: thermal stability score

{"seq": "MAHVGSRKRSRSRSRSRGRGSEKRKKKSRKDTSRNCSASTSQGRKASTAPGAEASPSPCITERSKQKARRRTRSSSSSSSSSSSSSSSSSSSSSSSSSDGRKKRGKYKDKRRKKKKKRKKLKKKGKEKAEAQQVEALPGPSLDQWHRSAGEEEDGPVLTDEQKSRIQAMKPMTKEEWDARQSIIRKVVDPETGRTRLIKGDGEVLEEIVTKERHREINKQATRGDCLAFQMRAGLLP [ARL6IP4]", "readoutNumber": -3.1}
{"seq": "MAPLGGAPRLVLLFSGKRKSGKDFVTEALQSRLGADVCAVLRLSGPLKEQYAQEHGLNFQRLLDTSTYKEAFRKDMIRWGEEKRQADPGFFCRKIVEGISQPIWLVSDTRRVSDIQWFREAYGAVTQTVRVVALEQSRQQRGWVFTPGVDDAESECGLDNFGDFDWVIENHGVEQRLEEQLENLIEFIRSRL [PMVK]", "readoutNumber": 1.71}
{"seq": "MGALVIRGIRNFNLENRAEREISKMKPSVAPRHPSTNSLLREQISLYPEVKGEIARKDEKLLSFLKDVYVDSKDPVSSLQVKAAETCQEPKEFRLPKDHHFDMINIKSIPKGKISIVEALTLLNNHKLFPETWTAEKIMQEYQLEQKDVNSLLKYFVTFEVEIFPPEDKKAIRSK [NDUFAF4]", "readoutNumber": -2.98}
